Every entry's value here was drawn from ChEMBL document CHEMBL1201862.

# System: M14
# experimentSummary: NCI tumour cell line growth inhibition, 48 h
The source made the active and inactive calls. Rule as the data show it: active = GI50 up to about 1.1 µM and inactive = higher.
measuredParameter: GI50

Worked examples follow.
molecule	measuredParameter	assayValue
Cc1ccc(S(=O)(=O)NC(=O)Nc2nnc(S(N)(=O)=O)s2)cc1	GI50	> 100 µM (inactive)
COc1c2c(c(OC)c3c(=O)cc(C/C(=N/NC(=O)C[n+]4ccccc4)C(=O)Nc4cc(C)ccc4C)oc13)OCO2	GI50	> 100 µM (inactive)
COc1cc2c3c(c1OC)C(=O)C(=O)C1=C3N(CCC1)CC2	GI50	26.4 µM (inactive)
CCCCCC(C[N+]1(C)CCOCC1)C(=O)/C=C/c1ccccc1 (centres undefined)	GI50	11.1 µM (inactive)
CSC(SC)=C1Sc2cccc(Cl)c2S1	GI50	82 µM (inactive)

Then there is this molecule:
**Query** For M14, give GI50 of the listed molecule: O=C(/C=C/c1ccccc1)OCC1=C[C@@H](O)[C@@H]2C=CO[C@@H](OC3OC(CO)C(O)C(O)C3O)[C@H]12 (some centres undefined)
**Result** > 100 µM (inactive)

###

# System: SF-539
# experimentSummary: NCI tumour cell line growth inhibition, 48 h
The source made the active and inactive calls. Rule as the data show it: active = GI50 up to about 1.1 µM and inactive = higher.
Reply using exactly one outcome from 1.0 for active, 0.0 for inactive

Some solved entries appear below for comparison.
compound	group
CN(CCNC(=O)c1cn(C)c2c1ccc1cc(Cl)c(Cl)cc12)CCNC(=O)c1cn(C)c2c1ccc1cc(Cl)c(Cl)cc12	0.0
CSC(SC)=C1Sc2cccc(Cl)c2S1	0.0
CN(CCc1ccccn1)C(=S)N/N=C/c1ccccn1	1.0
Cc1cc(N(CCC#N)S(=O)(=O)c2ccccc2)ccc1/C=N/c1ccc(C(=O)O)cc1	0.0
NS(=O)(=O)c1ccc(NC(=O)c2cccc3c(Nc4ccc(S(N)(=O)=O)cc4)c4ccccc4nc23)cc1	0.0

Next, consider the following compound.
**Query** Record lookup: outcome of this test for COc1ccc2c(c1)N=C1CSC(c3cccc(Br)c3)N1C2 (stereo unspecified) ?
**Result** 0.0

###

# Test system: NCI/ADR-RES
# experimentSummary: NCI tumour cell line growth inhibition, 48 h
Active and inactive are the calls of the source. Rule as the data show it: active = GI50 up to about 1.1 µM and inactive = higher.
Reply using exactly one outcome from active, inactive

compound	group
CC1=CC(=O)/C(=C/NC(N)=S)C(=O)O1	inactive
O=C1CSC2(CC(/C=C/c3ccccc3O)=NN2c2cccc(S(=O)(=O)O)c2)N1c1nc2ccccc2s1 (stereo not given)	inactive
Cc1cccc2oc3c(c(=O)c12)CC(O)C(C)(C)O3 (stereo not given)	inactive
CC(=O)Oc1cc2c(c3ncccc13)OC(C)(C)C2	inactive
C/C1=C\[C@H](C)C[C@H](C)OC(=O)[C@H](C)NC(=O)[C@@H](Cc2ccc(O)c(Br)c2)N(C)C(=O)[C@H](C)NC(=O)[C@@H](C)C1	active

Next, consider the following compound.
**Query** Record lookup: outcome of this test for CC(=O)c1ccc2c(c1)C(=O)c1sc(C(C)=O)cc1C2=O ?
**Result** active

###

# Tested on: SR
# experimentSummary: NCI tumour cell line growth inhibition, 48 h
Active and inactive are the calls of the source. Rule as the data show it: active = GI50 up to about 1.1 µM and inactive = higher.
Reply using exactly one outcome from true (1) (active), false (0) (inactive)

compound	group
C/C1=C\[C@H](C)C[C@H](C)OC(=O)C[C@H](c2ccc(O)cc2)NC(=O)[C@H](Cc2ccc(O)c(I)c2)N(C)C(=O)[C@H](C)NC(=O)[C@@H](C)C1	true (1)
CC(=O)[C@H]1CC[C@H]2[C@@H]3CCC4=CC(=O)CC[C@]4(C)[C@H]3CC[C@]12C [PROGESTERONE]	false (0)

Next, consider the following compound.
**Query** Record lookup: outcome of this test for O=C(Cl)c1cc([N+](=O)[O-])cc([N+](=O)[O-])c1 ?
**Result** false (0)

###

# Test system: NCI-H226
# experimentSummary: NCI tumour cell line growth inhibition, 48 h
Active and inactive are the calls of the source. Rule as the data show it: active = GI50 up to about 1.1 µM and inactive = higher.
Reply using exactly one outcome from active, inactive

Some solved entries appear below for comparison.
molecule	group
COc1cc(/C=C/c2nc(N)nnc2C)cc(OC)c1OC	inactive
COc1cc2c3c(c1OC)/C(=N/OS(=O)(=O)c1ccc(C)cc1)CC3N(S(=O)(=O)c1ccc(C)cc1)CC2 (configuration not stated)	inactive
COc1cc2c[n+](C)c3c4ccccc4ccc3c2cc1OC	inactive
CN(C)C=[N+]=[N-]	inactive

**Query** Record lookup: outcome of this test for Cc1cccc(NC(=S)Nc2ccccc2Cl)n1 ?
**Result** inactive

**Query** Record lookup: outcome of this test for CN(C)CCCN1C(=S)N(CCCN(C)C)c2c3ccccc3nc3c([N+](=O)[O-])ccc1c23 ?
**Result** inactive

###

# System: OVCAR-8
# experimentSummary: NCI tumour cell line growth inhibition, 48 h
The source made the active and inactive calls. Rule as the data show it: active = GI50 up to about 1.1 µM and inactive = higher.
Reply using exactly one outcome from true (1) = active, false (0) = inactive

molecule	studySystem	group
COc1cc2c(cc1OC)C1Cc3cc(OC)c(OC)cc3C(C2)N1C	OVCAR-8	false (0)

**Query** Record lookup: outcome of this test for CN(C)C=[N+]=[N-] ?
**Result** false (0)

###

In this section, each of the compounds is paired with its reported GI50.
# System: U-251
# experimentSummary: NCI tumour cell line growth inhibition, 48 h
Activity calls are given as the source filed them. No stated cut-off is given here; in the data, active = GI50 up to about 1.1 µM and inactive = higher.

Worked examples follow.
compound	assayValue
C(=N\C12CC3CC(CC(C3)C1)C2)/C1CCCCC1	> 100 µM (inactive)
CC1(C(=O)NCCN(CCNC(=O)C2(C)CC3(C)CC(C)(C2)C(=O)NC3=O)CCNC(=O)C2(C)CC3(C)CC(C)(C2)C(=O)NC3=O)CC2(C)CC(C)(C1)C(=O)NC2=O (stereo not given)	> 100 µM (inactive)
Nc1ccc(C(=O)Nc2ccccc2N)cc1	17.7 µM (inactive)
O=c1[nH]c2ccc(C(F)(F)F)cc2nc1C(F)(F)F	35 µM (inactive)
CNC(=O)N1CN(c2ccccc2)C2(CCN(Cc3ccccc3)CC2)C1=O	> 100 µM (inactive)
N#Cc1c(-c2ccccc2)c(C=O)c(=O)n2c1[nH]c1ccccc12	50.8 µM (inactive)

**Query** Supply reported GI50 belonging to this compound: CC(C)(C)[Si](C)(C)OCC1OC(n2ccc(=O)[nH]c2=O)C(O[Si](C)(C)C(C)(C)C)[C@@]12O[C@H]2C(N)=O (stereo not given in full)
**Result** 4.28 µM (inactive)

**Query** Supply reported GI50 belonging to this compound: O=C(/C=N/c1ccccc1S)c1ccco1
**Result** 5.53 µM (inactive)

**Query** Supply reported GI50 belonging to this compound: CC(C)c1[nH]nc(C(N)=O)c1/N=N/N(C)C
**Result** 49.7 µM (inactive)

**Query** Supply reported GI50 belonging to this compound: Cn1cc/c(=N\N=c2/ccn(C)c3ccccc23)c2ccccc21
**Result** 15.7 µM (inactive)

###

# Tested on: RXF 393
# experimentSummary: NCI tumour cell line growth inhibition, 48 h
Calls of active or inactive are those of the source. Rule as the data show it: active = GI50 up to about 1.1 µM and inactive = higher.
Reply using exactly one outcome from yes (active), no (inactive)

Some solved entries appear below for comparison.
compound	group
CCCCN1C(=O)CC2[C@@H]3CCc4cc(OC(C)=O)ccc4C3CC[C@]2(C)C1=O (stereo partly specified)	no
COc1ccc(C2OC2C(=O)C23CC4CC(CC(C4)C2)C3)cc1 (stereo unspecified)	no
O=c1ccn(COC(COCc2ccccc2)COCc2ccccc2)c(=O)[nH]1	no

**Query** Record lookup: outcome of this test for N=C(N)SCc1ccc(Cl)c2ccccc12.O=[N+]([O-])c1c(O)c(Cl)cc(Cl)c1Cl ?
**Result** no

**Query** Record lookup: outcome of this test for CCOC(=O)NC(=O)c1cn(CCOCCOC(=O)NCCCCCCNC(=O)OCCOCCn2cc(C(=O)NC(=O)OCC)c(=O)[nH]c2=O)c(=O)[nH]c1=O ?
**Result** no

**Query** Record lookup: outcome of this test for N#Cc1c(N)n(C2OC(CO)C(O)C2O)c2ncnc(N)c12 (stereo unspecified) ?
**Result** yes

###

# Test system: SW-620
# experimentSummary: NCI tumour cell line growth inhibition, 48 h
Active and inactive are the calls of the source. Rule as the data show it: active = GI50 up to about 1.1 µM and inactive = higher.
Reply using exactly one outcome from YES (active), NO (inactive)

Some solved entries appear below for comparison.
molecule	group
O=C(CC(=O)N1N=C(N(c2ccccc2)c2ccccc2)CC1c1ccccc1)Nc1cccc(Cl)c1 (centres undefined)	NO
COc1ccc(OC(=O)CC2Cc3cc(OC)c(OC)c(OC)c3-c3ccc(SC)c(=O)cc32)cc1 (centres undefined)	YES
CC(=O)N(C)C(C(=O)N1CC(C)CC1C(=O)N(C)C1C(=O)NC(CC(C)C)C(=O)N2CC(C)CC2C(=O)NC(CC(C)C)C(=O)N(C)C(C(C)C)C(=O)N2CCCC2C(=O)N(C)C(CC(C)C)C(=O)NCC(=O)OC1C)C(C)C (centres undefined)	NO
N=C(N)SCc1ccc(Cl)c2ccccc12.O=[N+]([O-])c1c(O)c(Cl)cc(Cl)c1Cl	NO
COC(=O)c1ccc(Cl)cc1NC(=O)C1CCCCC1	NO

**Query** Record lookup: outcome of this test for CC(=O)c1csc2c1C(=O)c1ccccc1C2=O ?
**Result** NO

**Query** Record lookup: outcome of this test for Cn1c(Sc2ccc(-c3cccnc3)n2C)ccc1-c1cccnc1 ?
**Result** NO

**Query** Record lookup: outcome of this test for COc1cc(OC)c2c(c1)C(=O)C(CC(C)O)=CC2=O (centres undefined) ?
**Result** NO

**Query** Record lookup: outcome of this test for C/C1=C\[C@H](C)C[C@H](C)OC(=O)[C@H](C)NC(=O)[C@@H](Cc2ccc(O)c(Br)c2)N(C)C(=O)[C@H](C)NC(=O)[C@@H](C)C1 ?
**Result** YES
